B1: BTBD1 (parent)
chain: YGSIHGPTDYQVNIQIIEYEKKQT

- Variants of: B1
- method summary: protein stability index of a GFP-peptide fusion (GPS, HEK-293T) (PSI 1-6); higher = more stable;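 further: lentivirally expressed fusions sorted by FACS into six bins by GFP to DsRed ratio, PSI derived from sequencing read proportions per bin multiplied by bin number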
- assay setup: c terminus: a fixed tail appended
Outcome label depends on protein stability index relative to 3: at/above gives condition met, below gives condition not met.

I4F    condition not met
Q11P    condition met

Check this variant for protein stability index at or above 3: K22C
condition not met
